Tested system: T1, HLA-A*0201 molecule on human T2 cells (human)
T1 construct: read out with anti-HLA-A2 antibody BB7.2-PE; also called HLA-A2
Assay procedure: T2 cells expressing HLA-A*0201, anti-HLA-A2-PE, FACS
Measure name: mean relative fluorescence intensity at 100 µM peptide

> print(dat)
                                     binder        observed.result
1                      YLLSAALTI [CHI3L1B3]  76.9 % of HIV peptide
2                       AVFRVLIPV [EZH2-B2]   112 % of HIV peptide
3                     FLPFGFILV [IL13RA2-B]   128 % of HIV peptide
4                        ILDEAYVRV [EGFR-B]  70.3 % of HIV peptide
5                      FMLGEFLKL [BIRC5-B1]   117 % of HIV peptide
6  RVSSYLVPI (Fragment of human FOXM1) [FOXM1-H]  83.8 % of HIV peptide
7                       FLDSLGFST [TYMS-H2]  50.6 % of HIV peptide
8                       LTLGEFLKL [BIRC5-H]  35.6 % of HIV peptide
